Tested on: Erysipelothrix rhusiopathiae WH13013
Assay: microbe, parasite or virus in culture
Type: cell-based
Provide the recorded MIC E. rhusiopathiae for the entries that follow.
API: value field is a number in µg/mL; no unit string.

Lookup: MIC E. rhusiopathiae for CC(C)=CCC/C(C)=C/C[C@@]12O[C@]1(CC=C(C)C)C(=O)c1c(O)cc(O)cc1C2=O [Compound 5, A80915G] ?
Found: 25

Lookup: Query: MIC E. rhusiopathiae; subject: C=C1CC[C@H](Cl)C(C)(C)C1C[C@@]12OC(C)(C)[C@H](Cl)C[C@]1(Cl)C(=O)c1c(O)cc(O)cc1C2=O (stereo partly drawn) [Compound 4, napyradiomycin B1]
Found: 50

----------
Test: in vitro
Conditions: African green monkey
Give measured CC50 for each item. Keep answers brief.
# output: bare number, implied unit µM

Lookup: Form field: reported CC50 of CC(C)=CCC/C(C)=C/C[C@@]12O[C@]1(CC=C(C)C)C(=O)c1c(O)cc(O)cc1C2=O [Compound 5, A80915G]
Found: 16.7

Lookup: What CC50 value was documented for this compound, CC(C)=CC[C@]12O[C@@]1(C/C=C(\C)CC/C=C(\C)C(=O)O)C(=O)c1cc(O)cc(O)c1C2=O [Compound 6, A80915G-8″-acid] ?
Found: 46.3

----------
System: Erysipelothrix rhusiopathiae WH13013
Experiment: microbe, parasite or virus in culture
Assay type: cell-based
MEASUREMENT_TYPE: MIC E. rhusiopathiae (mg/L)
Entry rule: numbers only, all in mg/L.

Lookup: Which MIC E. rhusiopathiae value belongs to CC(=CCC12OC(C)(C)C(Cl)CC1(Cl)C(=O)c1c(O)cc(O)cc1C2=O)CCC(=O)C(C)C (stereo not drawn) ?
Found: 50

Lookup: # MIC E. rhusiopathiae lookup, item CC(C)=CC[C@]12O[C@@]1(C/C=C(\C)CC/C=C(\C)C(=O)O)C(=O)c1cc(O)cc(O)c1C2=O [Compound 6, A80915G-8″-acid]
Found: 25

Lookup: What does the record list as MIC E. rhusiopathiae for CC(C)=CCC/C(C)=C/C[C@@]12OC(C)(C)[C@H](Cl)C[C@]1(Cl)C(=O)c1c(O)cc(O)cc1C2=O ?
Found: 50

----------
Please respond with reported CC50 for every item in the list.
Assay: in vitro
Conditions: African green monkey

Lookup: Form field: reported CC50 of CC(C)=CCC/C(C)=C/C[C@]1(O)C(=O)c2cc(O)cc(O)c2C(=O)[C@@]1(Cl)CC=C(C)C [Compound 7, naphthomevalin]
Found: > 0.045 µM

Lookup: Query (compound): CC(C)=CCC12OC1(CC=C(C)C(O)CC=C(C)CO)C(=O)c1cc(O)cc(O)c1C2=O (stereo not drawn) [Compound 2, A80915H] ; field requested: CC50
Found: > 90 µM

Lookup: Name the recorded CC50 for NC(=O)c1ncn([C@@H]2O[C@H](CO)[C@@H](O)[C@H]2O)n1 [Ribavirin, reference compound] .
Found: > 164 µM
